All values here come from paper doi:10.1101/2020.02.18.954917v1.

Biological target: Them1 StarD (Them1 START domain) (Homo sapiens, UniProt Q8WXI4)
Sequence (Q8WXI4 339-594 isoform Q8WXI4-2): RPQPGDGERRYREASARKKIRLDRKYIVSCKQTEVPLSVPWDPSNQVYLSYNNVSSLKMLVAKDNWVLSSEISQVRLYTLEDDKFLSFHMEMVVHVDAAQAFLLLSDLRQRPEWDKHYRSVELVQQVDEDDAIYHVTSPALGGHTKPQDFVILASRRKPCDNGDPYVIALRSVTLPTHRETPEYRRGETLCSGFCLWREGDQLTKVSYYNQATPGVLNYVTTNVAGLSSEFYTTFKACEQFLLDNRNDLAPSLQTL
pKd: −log10 of the molar value.
readout-type: pKd

CCCCCCCCCCCCCC(=O)O ... 4.15

P: CCCCCCCCCCCCCCCC(=O)O
Q: CCCCCCCCCCCCCCCCCC(=O)O
Ask: Which entry shows the lesser value of pKd here, P or Q ? Pick one; state its label.
Reply: P
